Taken from ChEMBL document CHEMBL1140934.

system: Mycobacterium tuberculosis; assay: Ratio of Kcat/Km for Mycobacterium tuberculosis F420-dependent nitroreductase by Michaelis-Menten equation
MEASURED_QUANTITY: log10 kcat/Km (log10 of the value in M⁻¹ s⁻¹)
Log scale reminder: kcat/Km in M⁻¹ s⁻¹, then log10 taken.

{"COMPOUND": "O=[N+]([O-])c1cn2c(n1)OC[C@@H](NCCCCCc1ccc(OC(F)(F)F)cc1)C2", "NUMERIC_READOUT": 4.18}

// for each compound below, give its log10 kcat/Km
1. O=[N+]([O-])c1cn2c(n1)OC[C@@H](NCc1ccc(OCc3ccc(OC(F)(F)F)cc3)cc1)C2
2. O=[N+]([O-])c1cn2c(n1)NC[C@@H](OCc1ccc(OC(F)(F)F)cc1)C2
3. O=CN1CC(OCc2ccc(OC(F)(F)F)cc2)Cn2cc([N+](=O)[O-])nc21 (single isomer, unassigned)
4. O=[N+]([O-])c1cn2c(n1)SC[C@@H](OCc1ccc(OC(F)(F)F)cc1)C2
5. O=[N+]([O-])c1cn2c(n1)CC[C@@H](OCc1ccc(OC(F)(F)F)cc1)C2

Ans.
1. 3.09
2. 3.61
3. 3.03
4. 3.39
5. 2.60

Batch: log10 kcat/Km for all items listed.
1. O=[N+]([O-])c1cn2c(n1)OC[C@@H](NCCc1ccc(OC(F)(F)F)cc1)C2
2. O=[N+]([O-])c1cn2c(n1)OC[C@@H](NCc1ccc(OCc3ccc(F)cc3)cc1)C2
3. O=[N+]([O-])c1cn2c(n1)OC[C@@H](NCCCCc1ccc(OC(F)(F)F)cc1)C2
4. O=C(COc1ccc(OC(F)(F)F)cc1)N[C@@H]1COc2nc([N+](=O)[O-])cn2C1
5. CCCCc1ccc(CN[C@@H]2COc3nc([N+](=O)[O-])cn3C2)cc1

Ans.
1. 3.26
2. 3.88
3. 3.93
4. 2.45
5. 2.95

For each listed entry, give its log10 kcat/Km.
1. CN1C[C@@H](OCc2ccc(OC(F)(F)F)cc2)Cn2cc([N+](=O)[O-])nc21
2. O=[N+]([O-])c1cn2c(n1)OC[C@@H](OCc1ccc(OC(F)(F)F)cc1)C2
3. O=[N+]([O-])c1cn2c(n1)OC[C@@H](NCCCc1ccc(OC(F)(F)F)cc1)C2
4. O=[N+]([O-])c1cn2c(n1)OC[C@@H](NCc1ccc(OCc3ccccc3)cc1)C2

Ans.
1. 3.01
2. 3.41
3. 3.71
4. 3.54

Qu. Given the entry O=[N+]([O-])c1cn2c(n1)OC[C@@H](NCc1ccc(OC(F)(F)F)cc1)C2 , report its measured log10 kcat/Km.
Ans. 3.46
